Hey, just so you know, these numbers are from the supplement of paper PMC10065799.

Biological target: Fes (UniProt P07332)
Sequence (P07332 whole entry, looked up): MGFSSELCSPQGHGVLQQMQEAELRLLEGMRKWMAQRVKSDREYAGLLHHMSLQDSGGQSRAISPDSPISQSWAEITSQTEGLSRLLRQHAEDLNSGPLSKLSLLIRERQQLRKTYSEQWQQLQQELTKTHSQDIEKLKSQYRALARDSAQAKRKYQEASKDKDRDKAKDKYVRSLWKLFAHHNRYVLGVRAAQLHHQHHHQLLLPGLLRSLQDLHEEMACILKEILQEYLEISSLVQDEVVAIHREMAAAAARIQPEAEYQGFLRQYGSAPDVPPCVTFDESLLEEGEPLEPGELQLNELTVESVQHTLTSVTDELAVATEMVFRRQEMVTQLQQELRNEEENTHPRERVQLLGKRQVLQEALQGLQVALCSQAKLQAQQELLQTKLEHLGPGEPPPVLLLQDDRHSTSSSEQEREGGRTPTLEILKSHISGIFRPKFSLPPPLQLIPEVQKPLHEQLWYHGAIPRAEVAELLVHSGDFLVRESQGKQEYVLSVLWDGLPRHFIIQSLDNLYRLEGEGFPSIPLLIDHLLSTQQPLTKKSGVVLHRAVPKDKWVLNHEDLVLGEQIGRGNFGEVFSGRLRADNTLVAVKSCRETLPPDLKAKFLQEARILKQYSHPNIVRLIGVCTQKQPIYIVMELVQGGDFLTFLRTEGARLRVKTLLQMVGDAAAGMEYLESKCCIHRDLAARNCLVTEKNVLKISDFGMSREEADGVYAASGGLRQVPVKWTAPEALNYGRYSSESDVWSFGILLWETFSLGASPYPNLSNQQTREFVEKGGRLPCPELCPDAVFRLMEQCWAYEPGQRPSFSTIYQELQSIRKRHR
Assay: phosphorylation enrichment, bacterial display (enrichment ratio); higher = better substrate or ligand; peptides without Tyr show the background;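 further: 11-residue human phosphosite peptides and single-mutation variants displayed on the E. coli surface, counted by deep sequencing, each peptide's frequency after selection divided by its frequency in the unselected input library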;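 further: frequency after pTyr selection over input frequency; kinase dosed for 20-30% of maximal phosphorylation in three min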
measured endpoint: phosphorylation enrichment

List the reported phosphorylation enrichment of each sequence below.
1. LIYTNYEAGKD [GSTP1_Y112]
2. IETGRYEILTE
3. GDYYRYLAEVA [YWHAG_Y133]
4. SPFEVYVDKSQ [FLNA_Y373]

[1.01, 1, 1.01, 1.27]

====

Would you kindly list phosphorylation enrichment for each of these sequences?
Tested on: Fer (mouse)
Test: phosphorylation enrichment, bacterial display (enrichment ratio); higher = better substrate or ligand; peptides without Tyr show the background

Some solved cases for reference:
Please state recorded phosphorylation enrichment (tested on Fer (mouse)) of MKNQKYGRIIM [HSD17B4_Y143_K140N]
0.341

# get_value(readout= phosphorylation enrichment, system= Fer (mouse)) for QFNIQYSSSAA [ERBB2IP_Y981_YF]
0.458

# get_value(readout= phosphorylation enrichment, system= Fer (mouse)) for NTGGFYDLFGG [PTPN11_Y63_D61G_YF]
3.82

Can you give me phosphorylation enrichment for all of these, one by one?
1. SLNEGYARDFD [FBP1_Y216]
2. ISRDVYSTDYY [NTRK2_Y702_M697I]
3. GGDAVYTNGAI [RFX2_Y82]
4. KNKELYSDPFD [PDE10A_Y300_L303P]
5. RAEIVYKSPVV [MAPT_Y711_G706R]
6. GHPYAYDWISI [BEST1_Y227_L224P]

1. 0.554
2. 0.703
3. 0.5
4. 0.983
5. 0.363
6. 17.5
